Kindly supply the reported Emax values for the records listed here.
studyTarget: human MC3R (Homo sapiens, UniProt P41968)
Construct: expressed in transfected cells; host or cells: HEK-293 cells stably expressing the GScAMP22F split-luciferase cAMP sensor (parent reporter line from Promega); MC3R clone generated in-house, G418 selection
Sequence (P41968 whole entry): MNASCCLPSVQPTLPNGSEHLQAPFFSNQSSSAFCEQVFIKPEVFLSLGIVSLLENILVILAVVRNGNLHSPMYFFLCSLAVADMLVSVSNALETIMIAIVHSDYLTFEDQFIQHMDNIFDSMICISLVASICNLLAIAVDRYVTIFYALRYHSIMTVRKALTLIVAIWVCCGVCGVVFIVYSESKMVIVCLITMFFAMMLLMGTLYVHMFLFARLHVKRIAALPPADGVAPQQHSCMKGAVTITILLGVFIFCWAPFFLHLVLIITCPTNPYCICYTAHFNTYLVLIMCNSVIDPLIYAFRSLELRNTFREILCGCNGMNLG
methodNotes: split-luciferase cAMP sensor assay, agonist mode (measurement window 1), hMC3R
Format: cell-based
runConditions: agonist mode, hMC3R stable cell line; read-out: MC3R cAMP % max activation
Positions of bridges follow the written chain, without caps; N, C: chain ends. Non-standard residues stand in square brackets, D forms with d. Residues, ends and D or L forms follow the SMILES beside them. Phe(4-Br) = N[C@@H](Cc1ccc(Br)cc1)C(=O)O; dPhe(4-Br) = N[C@H](Cc1ccc(Br)cc1)C(=O)O; dNMeF = CN[C@H](Cc1ccccc1)C(=O)O; Cit = NC(=O)NCCC[C@H](N)C(=O)O; Nle = CCCC[C@H](N)C(=O)O
Put your answer as a value accompanied by its unit after it.

Worked examples, 10 compounds total:
# compound, metric, result
data = [
    ("CC(=O)N[C@@H](CCCNC(=N)N)C(=O)N[C@H]1CSSC[C@@H](C(N)=O)NC(=O)[C@@H](Cc2c[nH]c3ccccc23)NC(=O)[C@H](CCCNC(=N)N)NC(=O)[C@@H](Cc2ccc(Br)cc2)NC(=O)[C@@H]2CCCN2C(=O)[C@@H](C)NC1=O [CTX-1249] (Ac-RC[dA]P[dPhe(4-Br)]R[dW]C-NH2; disulfide 2-8)", "Emax", "1.9%"),
    ("CC(=O)N[C@@H](CCCNC(=N)N)C(=O)N[C@H]1CSSC[C@@H](C(N)=O)NC(=O)[C@@H](Cc2c[nH]c3ccccc23)NC(=O)[C@H](CCCNC(=N)N)NC(=O)[C@@H](Cc2ccccc2)N(C)C(=O)[C@H](CCCNC(=N)N)NC(=O)[C@@H](C)NC1=O [CTX-1272] (Ac-RC[dA]R[dNMeF]R[dW]C-NH2; disulfide 2-8 (inferred))", "Emax", "0.9%"),
    ("COc1ccc(C[C@H]2NC(=O)[C@H](CCCNC(=N)N)NC(=O)[C@@H](C)NC(=O)[C@@H](NC(=O)[C@H](CCCNC(=N)N)NC(C)=O)CSSC[C@@H](C(N)=O)NC(=O)[C@@H](Cc3c[nH]c4ccccc34)NC(=O)[C@H](CCCNC(=N)N)NC2=O)cc1 [CTX-1238] (Ac-RC[dA]R[dY](Me)R[dW]C-NH2; disulfide 2-8 (inferred))", "Emax", "21%"),
    ("CC(=O)N[C@@H](CCCNC(=N)N)C(=O)N[C@H]1CSSC[C@@H](C(=O)N[C@@H](CCCNC(=N)N)C(=O)N[C@H](Cc2ccccc2)C(N)=O)NC(=O)[C@@H](Cc2c[nH]c3ccccc23)NC(=O)[C@H](CCCNC(=N)N)NC(=O)[C@@H](Cc2ccc(Br)cc2)NC(=O)[C@H](CCCNC(=N)N)NC(=O)[C@@H](C)NC1=O [CTX-1222] (Ac-RC[dA]R[dPhe(4-Br)]R[dW]CR[dF]-NH2; disulfide 2-8 (inferred))", "Emax", "38%"),
    ("CC(=O)N[C@@H](CCCNC(=N)N)C(=O)N[C@H]1CSSC[C@@H](C(N)=O)NC(=O)[C@@H](Cc2c[nH]c3ccccc23)NC(=O)[C@H](CCCNC(=N)N)NC(=O)[C@@H](Cc2ccc(Br)cc2)NC(=O)[C@@H](CCCNC(=N)N)NC(=O)[C@@H](C)NC1=O [CTX-1250] (Ac-RC[dA][dR][dPhe(4-Br)]R[dW]C-NH2; disulfide 2-8 (inferred))", "Emax", "10%"),
    ("CC(=O)N[C@@H](CCCNC(=N)N)C(=O)N[C@H]1CSSC[C@@H](C(N)=O)NC(=O)[C@@H](Cc2c[nH]c3ccccc23)NC(=O)[C@H](CCCNC(N)=O)NC(=O)[C@@H](Cc2ccc(Br)cc2)NC(=O)[C@H](CCCNC(=N)N)NC(=O)[C@@H](C)NC1=O [CTX-1253] (Ac-RC[dA]R[dPhe(4-Br)][Cit][dW]C-NH2; disulfide 2-8 (inferred))", "Emax", "9.2%"),
    ("COc1ccc(C[C@H]2NC(=O)[C@H](CCCNC(=N)N)NC(=O)CNC(=O)[C@@H](NC(C)=O)CSSC[C@@H](C(N)=O)NC(=O)[C@H](Cc3ccccc3)NC(=O)[C@H](CCCNC(=N)N)NC2=O)cc1 [CTX-1641] (Ac-CGR[dY](Me)RFC-NH2; disulfide 1-7)", "Emax", "22%"),
    ("CCCC[C@H](NC(=O)[C@H](CCCNC(=N)N)NC(C)=O)C(=O)N[C@H]1CSSC[C@@H](C(N)=O)NC(=O)[C@H](Cc2c[nH]c3ccccc23)NC(=O)[C@H](CCCNC(=N)N)NC(=O)[C@@H](Cc2ccc(OC)cc2)NC(=O)[C@H](CCCNC(=N)N)NC1=O [CTX-1614] (Ac-R[Nle]CR[dY](Me)RWC-NH2; disulfide 3-8 (inferred))", "Emax", "28%"),
    ("CC(=O)N[C@@H](CCCNC(=N)N)C(=O)N[C@H]1CSSC[C@@H](C(N)=O)NC(=O)[C@@H](Cc2c[nH]c3ccccc23)NC(=O)[C@@H](CCCNC(=N)N)NC(=O)[C@@H](Cc2ccccc2)NC(=O)[C@H](CCCNC(=N)N)NC(=O)[C@@H](C)NC1=O [CTX-1283] (Ac-RC[dA]R[dF][dR][dW]C-NH2; disulfide 2-8)", "Emax", "7.8%"),
    ("CC(=O)N[C@@H](CCCNC(=N)N)C(=O)N[C@H]1CSSC[C@@H](C(N)=O)NC(=O)[C@H](Cc2c[nH]c3ccccc23)NC(=O)[C@H](CCCNC(=N)N)NC(=O)[C@H](Cc2ccc(Br)cc2)NC(=O)[C@H](CCCNC(=N)N)NC(=O)[C@@H](C)NC1=O [CTX-1212] (Ac-RC[dA]R[Phe(4-Br)]RWC-NH2; disulfide 2-8)", "Emax", "0.1%"),
]

Batch request: Emax per item, same order as input.
1. CC(=O)N[C@@H](CCCNC(=N)N)C(=O)N[C@H]1CSSC[C@@H](C(N)=O)NC(=O)[C@H](Cc2c[nH]c3ccccc23)NC(=O)[C@@H](CCCNC(=N)N)NC(=O)[C@@H](Cc2ccccc2)NC(=O)[C@H](CCCNC(=N)N)NC(=O)[C@@H](C)NC1=O [CTX-1282] (Ac-RC[dA]R[dF][dR]WC-NH2; disulfide 2-8 (inferred))
2. C[C@H]1NC(=O)[C@@H](NC(=O)[C@H](CCCNC(=N)N)NC(=O)COCCOCCNC(=O)COCCOCCNC(=O)CNC(=O)CCc2ccc(I)cc2)CSSC[C@@H](C(N)=O)NC(=O)[C@@H](Cc2c[nH]c3ccccc23)NC(=O)[C@H](CCCNC(=N)N)NC(=O)[C@@H](Cc2ccc(Br)cc2)NC(=O)[C@H](CCCNC(=N)N)NC1=O

-- reply
4.2%
29%
